The values you see were collected from patent US20240368214A1.

experimental system: recombinant human GluN1/GluN2A receptor (Homo sapiens, UniProt Q05586+Q12879)
Construct: expressed in transfected cells; host or cells: HEK293, tetracycline-inducible expression
Sequence (Q12879 23-1464, other chains not shown): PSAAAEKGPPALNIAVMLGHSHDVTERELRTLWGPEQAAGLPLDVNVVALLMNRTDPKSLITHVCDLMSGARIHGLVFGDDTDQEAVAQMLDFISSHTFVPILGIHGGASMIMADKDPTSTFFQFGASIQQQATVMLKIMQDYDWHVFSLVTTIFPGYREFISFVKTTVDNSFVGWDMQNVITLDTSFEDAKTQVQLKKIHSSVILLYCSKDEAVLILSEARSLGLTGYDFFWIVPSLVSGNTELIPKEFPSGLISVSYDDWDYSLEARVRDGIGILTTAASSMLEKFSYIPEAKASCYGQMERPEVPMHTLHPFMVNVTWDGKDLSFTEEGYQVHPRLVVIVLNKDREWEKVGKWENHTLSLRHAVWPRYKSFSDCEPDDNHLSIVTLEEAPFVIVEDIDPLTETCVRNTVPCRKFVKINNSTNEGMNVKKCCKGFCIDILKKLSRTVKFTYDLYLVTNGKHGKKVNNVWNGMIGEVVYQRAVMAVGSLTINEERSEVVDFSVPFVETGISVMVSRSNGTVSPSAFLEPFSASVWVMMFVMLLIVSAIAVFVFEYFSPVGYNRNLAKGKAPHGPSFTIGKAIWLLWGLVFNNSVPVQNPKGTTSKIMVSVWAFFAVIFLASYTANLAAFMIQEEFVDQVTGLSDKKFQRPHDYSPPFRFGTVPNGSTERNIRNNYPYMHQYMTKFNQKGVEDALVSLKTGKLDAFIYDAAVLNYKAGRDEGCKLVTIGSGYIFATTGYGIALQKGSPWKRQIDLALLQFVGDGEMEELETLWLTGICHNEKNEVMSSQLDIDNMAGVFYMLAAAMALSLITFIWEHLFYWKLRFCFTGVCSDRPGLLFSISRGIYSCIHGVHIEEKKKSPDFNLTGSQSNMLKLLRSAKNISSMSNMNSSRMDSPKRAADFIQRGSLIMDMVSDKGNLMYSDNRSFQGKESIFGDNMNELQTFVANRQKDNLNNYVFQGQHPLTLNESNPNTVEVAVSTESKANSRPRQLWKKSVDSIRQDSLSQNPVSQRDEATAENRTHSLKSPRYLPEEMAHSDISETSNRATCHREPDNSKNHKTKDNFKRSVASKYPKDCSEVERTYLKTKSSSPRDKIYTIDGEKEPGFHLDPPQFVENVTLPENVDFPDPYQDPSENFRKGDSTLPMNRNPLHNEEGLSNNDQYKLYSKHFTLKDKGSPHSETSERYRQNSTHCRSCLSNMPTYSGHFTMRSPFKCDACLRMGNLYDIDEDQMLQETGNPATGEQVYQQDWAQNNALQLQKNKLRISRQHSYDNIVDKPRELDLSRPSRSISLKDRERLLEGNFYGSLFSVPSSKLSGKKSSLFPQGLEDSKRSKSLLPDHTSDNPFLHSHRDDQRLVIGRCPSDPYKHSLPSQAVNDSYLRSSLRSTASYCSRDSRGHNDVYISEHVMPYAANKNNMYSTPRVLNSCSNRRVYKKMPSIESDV
experiment summary: Whole-cell patch clamp of mammalian cells (Syncropatch 384i), NMDA modulation
Type: cell-based
measurement setup: Table C-2; HEK293 cells, human GluN1/GluN2A; glutamate 1 μM / glycine 100 μM; -80 mV; peak amplitude increase; read-out: EC50
readout kind: EC50

Sample records with EC50:
[
  {
    "compound": "CC[C@]1(O)CC[C@@]2(C)C(=CC[C@H]3[C@@H]4CC[C@H]([C@H](C)CC[C@@H](O)C5(C#N)CC5)[C@@]4(C)CC[C@@H]32)C1 [Compound C-21]",
    "experimental system": "recombinant human GluN1/GluN2A receptor (Homo sapiens, UniProt Q05586+Q12879)",
    "EC50": "1 to 100 nM"
  },
  {
    "compound": "C[C@H](CC[C@H](O)C1(C#N)CCC1)[C@H]1CC[C@H]2[C@@H]3CC[C@H]4C[C@@](C)(O)CC[C@]4(C)C3=CC[C@]12C [Compound C-30]",
    "experimental system": "recombinant human GluN1/GluN2A receptor (Homo sapiens, UniProt Q05586+Q12879)",
    "EC50": "100 to 500 nM"
  }
]

Proceeding to the next compound to report its EC50.
Given the entry CC[C@@H](C#N)[C@H](O)CC[C@@H](C)[C@H]1CC[C@H]2[C@@H]3CC[C@H]4C[C@](O)(CC)CC[C@]4(C)[C@H]3CC[C@]12C [Compound C-7] , report its measured EC50.
1 to 100 nM

###

experimental system: recombinant human GluN1/GluN2A receptor (Homo sapiens, UniProt Q05586+Q12879)
Construct: expressed in transfected cells; host or cells: HEK293, tetracycline-inducible expression
experiment summary: Whole-cell patch clamp of mammalian cells (Syncropatch 384i), NMDA modulation
Assay type: cell-based
measurement setup: Table G-2; HEK293 cells, human GluN1/GluN2A; glutamate 1 μM / glycine 100 μM; -80 mV; peak amplitude increase; read-out: EC50
pEC50: −log10 of the molar value.
readout kind: pEC50

Sample records with pEC50:
[
  {
    "chem smiles": "CC[C@]1(O)CC[C@@]2(CC)[C@@H](CC[C@H]3[C@@H]4CC[C@H]([C@H](C)CCCC(C)(C)O)[C@@]4(C)CC[C@@H]32)C1",
    "pEC50": "7.00 to 9.00"
  },
  {
    "chem smiles": "CC[C@]1(O)CC[C@H]2[C@@H](CC[C@@H]3[C@@H]2CC[C@]2(C)[C@@H]([C@H](C)CC[C@](C)(O)C(F)(F)F)CC[C@@H]32)C1",
    "pEC50": "7.00 to 9.00"
  },
  {
    "chem smiles": "CC[C@]1(O)CC[C@@]2(CC)[C@@H](CC[C@H]3[C@@H]4CC[C@H]([C@H](C)CC[C@](C)(O)C(F)(F)F)[C@@]4(C)CC[C@@H]32)C1",
    "pEC50": "7.00 to 9.00"
  },
  {
    "chem smiles": "CC[C@]1(O)CC[C@@]2(CC)[C@@H](CC[C@H]3[C@@H]4CC[C@H]([C@H](C)CC[C@@](C)(O)C(F)(F)F)[C@@]4(C)CC[C@@H]32)C1",
    "pEC50": "6.30 to 7.00"
  }
]

Proceeding to the next compound to report its pEC50.
Given the entry CC[C@]1(O)CC[C@H]2[C@@H](CC[C@@H]3[C@@H]2CC[C@]2(C)[C@@H]([C@H](C)CC[C@@](C)(O)C(F)(F)F)CC[C@@H]32)C1 , report its measured pEC50.
6.00 to 6.30

###

experimental system: recombinant human GluN1/GluN2A receptor (Homo sapiens, UniProt Q05586+Q12879)
Construct: expressed in transfected cells; host or cells: HEK293, tetracycline-inducible expression
experiment summary: Whole-cell patch clamp of mammalian cells (Syncropatch 384i), NMDA modulation
Type: cell-based
measurement setup: Table F-2; HEK293 cells, human GluN1/GluN2A; glutamate 1 μM / glycine 100 μM; -80 mV; peak amplitude increase; read-out: EC50
readout kind: EC50

Given the entry CC[C@]1(O)CC[C@@]2(C)C(=CC[C@H]3[C@@H]4CC[C@H]([C@H](C)CC[C@@H](O)C(C)C)[C@H]4CC[C@@H]32)C1 , report its measured EC50.
100 to 500 nM

Given the entry CC[C@]1(O)CC[C@@]2(C)[C@@H](CC[C@@H]3[C@@H]2CC[C@]2(CC)[C@@H]([C@H](C)CC[C@@H](O)C(C)C)CC[C@@H]32)C1 , report its measured EC50.
100 to 500 nM

Given the entry CC[C@]1(O)CC[C@@]2(C)C(=CC[C@H]3[C@@H]4CC[C@H]([C@H](C)CC[C@@H](O)C(C)C)[C@@]4(CC)CC[C@@H]32)C1 , report its measured EC50.
100 to 500 nM

###

experimental system: recombinant human GluN1/GluN2A receptor (Homo sapiens, UniProt Q05586+Q12879)
Construct: expressed in transfected cells; host or cells: HEK293, tetracycline-inducible expression
experiment summary: Whole-cell patch clamp of mammalian cells (Syncropatch 384i), NMDA modulation
Assay type: cell-based
measurement setup: Table A-2; HEK293 cells, human GluN1/GluN2A; glutamate 1 μM / glycine 100 μM; -80 mV; peak amplitude increase
readout kind: Emax

Sample records with Emax:
[
  {
    "molecule": "CC[C@]1(O)CC[C@@]2(C)[C@@H](CC[C@@H]3[C@@H]2CC[C@]2(C)[C@@H]([C@H](F)CC[C@H](O)C(C)C)CC[C@@H]32)C1 [Compound A-4]",
    "endpoint result": "> 200%"
  },
  {
    "molecule": "CC[C@]1(O)CC[C@@]2(C)C(=CC[C@H]3[C@@H]4CC[C@H]([C@@H](CCCC(C)(C)O)OC)[C@@]4(C)CC[C@@H]32)C1 [Compound A-12]",
    "endpoint result": "100 to 200%"
  },
  {
    "molecule": "CC[C@]1(O)CC[C@@]2(C)[C@@H](CC[C@@H]3[C@@H]2CC[C@]2(C)[C@@H]([C@@H](CC[C@H](O)C(C)C)OC)CC[C@@H]32)C1 [Compound A-7]",
    "endpoint result": "> 200%"
  },
  {
    "molecule": "CC[C@H](CCCC(C)(C)O)[C@H]1CC[C@H]2[C@@H]3CC[C@H]4C[C@](O)(CC)CC[C@]4(C)[C@H]3CC[C@]12C [Compound A-1]",
    "endpoint result": "100 to 200%"
  },
  {
    "molecule": "CC[C@H](CC[C@](C)(O)C(F)(F)F)[C@H]1CC[C@H]2[C@@H]3CC[C@H]4C[C@](O)(CC)CC[C@]4(C)[C@H]3CC[C@]12C [Compound A-3]",
    "endpoint result": "> 200%"
  },
  {
    "molecule": "CCO[C@H](CC[C@H](O)C(C)C)[C@H]1CC[C@H]2[C@@H]3CC[C@@H]4C[C@](O)(CC)CC[C@]4(C)[C@H]3CC[C@]12C [Compound A-11a]",
    "endpoint result": "< 100%"
  },
  {
    "molecule": "CC[C@]1(O)CC[C@@]2(C)[C@@H](CC[C@@H]3[C@@H]2CC[C@]2(C)[C@@H]([C@@H](CCCC(C)(C)O)OC)CC[C@@H]32)C1 [Compound A-10]",
    "endpoint result": "100 to 200%"
  },
  {
    "molecule": "CC[C@]1(O)CC[C@@]2(C)[C@@H](CC[C@@H]3[C@@H]2CC[C@]2(C)[C@@H](C(C#N)CCCC(C)(C)O)CC[C@@H]32)C1 (stereo partly drawn) [Compound A-8]",
    "endpoint result": "100 to 200%"
  }
]

Given the entry CC[C@]1(O)CC[C@@]2(C)C(=CC[C@H]3[C@@H]4CC[C@H]([C@@H](CC[C@@](C)(O)C(F)(F)F)OC)[C@@]4(C)CC[C@@H]32)C1 [Compound A-13] , report its measured Emax.
> 200%

###

experimental system: recombinant human GluN1/GluN2A receptor (Homo sapiens, UniProt Q05586+Q12879)
Construct: expressed in transfected cells; host or cells: HEK293, tetracycline-inducible expression
experiment summary: Whole-cell patch clamp of mammalian cells (Syncropatch 384i), NMDA modulation
Type: cell-based
measurement setup: Table D-2; HEK293 cells, human GluN1/GluN2A; glutamate 1 μM / glycine 100 μM; -80 mV; peak amplitude increase; read-out: EC50
pEC50: −log10 of the molar value.
readout kind: pEC50

Sample records with pEC50:
[
  {
    "molecule": "CC[C@@]1(O)CC[C@@H]2CC[C@@H]3[C@H](CC[C@]4(C)[C@@H]([C@H](C)CC[C@@](C)(O)C(F)(F)F)CC[C@@H]34)[C@@]2(C)CC1",
    "pEC50": "< 6.00"
  },
  {
    "molecule": "CC[C@@]1(O)CC[C@@H]2CC[C@@H]3[C@H](CC[C@]4(C)[C@@H]([C@H](C)CC[C@](C)(O)C(F)(F)F)CC[C@@H]34)[C@@]2(C)CC1",
    "pEC50": "6.30 to 7.00"
  },
  {
    "molecule": "CC[C@]1(O)CCC[C@@]2(C)[C@@H](CC[C@@H]3[C@@H]2CC[C@]2(C)[C@@H]([C@H](C)CC[C@@](C)(O)C(F)(F)F)CC[C@@H]32)C1",
    "pEC50": "6.30 to 7.00"
  },
  {
    "molecule": "CC[C@]1(O)CCC[C@@]2(C)C(=CC[C@H]3[C@@H]4CC[C@H]([C@H](C)CCC(C)(C)O)[C@@]4(C)CC[C@@H]32)C1",
    "pEC50": "6.30 to 7.00"
  },
  {
    "molecule": "CC[C@]1(O)CC[C@@H]2CC[C@@H]3[C@H](CC[C@]4(C)[C@@H]([C@H](C)CC[C@@](C)(O)C(F)(F)F)CC[C@@H]34)[C@@]2(C)CC1",
    "pEC50": "< 6.00"
  },
  {
    "molecule": "CC[C@@]1(O)CCC[C@@]2(C)[C@@H](CC[C@@H]3[C@@H]2CC[C@]2(C)[C@@H]([C@H](C)CC[C@@](C)(O)C(F)(F)F)CC[C@@H]32)C1",
    "pEC50": "7.00 to 9.00"
  },
  {
    "molecule": "CC[C@]1(O)CCC[C@@]2(C)C(=CC[C@H]3[C@@H]4CC[C@H]([C@H](C)CC[C@](C)(O)C(F)(F)F)[C@@]4(C)CC[C@@H]32)C1",
    "pEC50": "6.30 to 7.00"
  },
  {
    "molecule": "CC[C@@]1(O)CCC[C@@]2(C)C(=CC[C@H]3[C@@H]4CC[C@H]([C@H](C)CC[C@](C)(O)C(F)(F)F)[C@@]4(C)CC[C@@H]32)C1",
    "pEC50": "< 6.00"
  },
  {
    "molecule": "C[C@H](CC[C@](C)(O)C(F)(F)F)[C@H]1CC[C@H]2[C@@H]3CC=C4C[C@](C)(O)CCC[C@]4(C)[C@H]3CC[C@]12C",
    "pEC50": "< 6.00"
  },
  {
    "molecule": "C[C@H](CC[C@](C)(O)C(F)(F)F)[C@H]1CC[C@H]2[C@@H]3CC=C4C[C@@](C)(O)CCC[C@]4(C)[C@H]3CC[C@]12C",
    "pEC50": "6.30 to 7.00"
  }
]

Given the entry CCC1(O)CCC[C@@]2(C)[C@@H](CC[C@@H]3[C@@H]2CC[C@]2(C)[C@@H]([C@H](C)CC[C@](C)(O)C(F)(F)F)CC[C@@H]32)C1 (stereo in doubt) , report its measured pEC50.
< 6.00

Given the entry CC[C@]1(O)CC[C@@H]2CC[C@@H]3[C@H](CC[C@]4(C)[C@@H]([C@H](C)CC[C@](C)(O)C(F)(F)F)CC[C@@H]34)[C@@]2(C)CC1 , report its measured pEC50.
< 6.00

Given the entry CC[C@]1(O)CCC[C@@]2(C)[C@@H](CC[C@@H]3[C@@H]2CC[C@]2(C)[C@@H]([C@H](C)CC[C@](C)(O)C(F)(F)F)CC[C@@H]32)C1 , report its measured pEC50.
7.00 to 9.00
